target: Induced myeloid leukemia cell differentiation protein Mcl-1 (Homo sapiens) (UniProt Q07820); assay: disruptors of Mcl-1 and Noxa BH3 peptide – biochemical, TR-FRET, 1536-well, primary screen (AID 1022); details: TR-FRET Mcl-1/Noxa peptide binding, 2 h; at 21.7 µM;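 note: His-tagged Mcl-1 with rhodamine Noxa BH3 peptide and terbium anti-His antibody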
Sequence (Q07820 whole entry, looked up): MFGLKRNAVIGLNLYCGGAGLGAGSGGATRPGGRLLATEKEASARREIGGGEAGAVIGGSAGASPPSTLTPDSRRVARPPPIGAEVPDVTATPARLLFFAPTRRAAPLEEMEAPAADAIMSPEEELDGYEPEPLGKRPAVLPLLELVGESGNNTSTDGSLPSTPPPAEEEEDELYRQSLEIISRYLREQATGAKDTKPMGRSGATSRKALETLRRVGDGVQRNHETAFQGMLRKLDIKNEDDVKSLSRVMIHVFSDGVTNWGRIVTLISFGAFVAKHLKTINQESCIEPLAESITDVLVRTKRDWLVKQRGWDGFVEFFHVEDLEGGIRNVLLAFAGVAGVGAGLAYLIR
The whole screen tested about 220,000 compounds, of which about 3,300 (1.5%) were called active.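 Rule for the calls: active = compounds that cut the protein-peptide binding signal by more than 50% relative to plate controls in a single-dose test; inactive = the rest.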 Only a selection was taken, and actives are over-represented in it overall.
Choose one outcome from this list and give only that: active, inactive

>  <Compound>
Cc1c(C)c(C)c2[nH]c(=S)[nH]c2c1C

>  <Discrete Label>
inactive

$$$$

Lookup: What did the test return for CC(=O)N/C(=C\c1ccc(F)cc1)C(=O)NC(Cc1ccccc1)C(=O)O (configuration not stated) ?
Found: inactive
